All values here come from patent US20170081400A1.

- system: T1, human TL1A extracellular domain with N-terminal HIS and FLAG tag (human, UniProt O95150 72-251)
- T1 construct: the whole entry is named
- T1 sequence: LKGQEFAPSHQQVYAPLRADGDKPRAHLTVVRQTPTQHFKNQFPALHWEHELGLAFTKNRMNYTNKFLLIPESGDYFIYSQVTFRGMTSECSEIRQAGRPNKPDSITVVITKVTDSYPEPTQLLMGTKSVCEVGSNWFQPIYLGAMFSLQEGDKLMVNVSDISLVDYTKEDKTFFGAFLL
- assaySummary: SPR Run 6, purified Ab captured on Protein A, TL1A 5 ug/mL, timepoint 170
- Procedure: 1.5. Antibody expression and antigen binding as determined by SPR. Using a CM5 sensor chip (GE Healthcare) Protein A (Pierce) was coupled to the chip surface using an amine coupling kit (GE Healthcare). Protein A was coupled on flow cell 1 and 2 (or alternatively 3 and 4) using a BIACORE® T200. […] At the end of injection of the supernatant or purified antibody the change in response units was measured. […] The response units were measured prior to the end of the dissociation phase. […]
reportedProperty: TL1A Binding Level (Late)
Report the figure along with its unit, number first.

Known TL1A Binding Level (Late) results, listed for orientation:
• 320-447 (antibody, human IgG1, name in Kabat numbering, V domains shown, human IgG1, lambda) VH: QVQLVQSGAEVKKPGASVKVSCKASGYTFTSYSINWVRQAPGQGLEWMGWLNPNSGNTGYAQKFQGRVTMTADRSTSTAYMELSSLRSEDTAVYYCAREVPETAAFEYWGQGTLVTVSS VL: QSVLTQPPSVSGAPGQRVTISCTSSSSDIGAGLGVHWYQQLPGTAPKLLIEGYYNRPSGVPDRFSGSKSGTSASLTITGLLPEDEGDYYCQSYDGTLSALFGGGTKLTVLG = 13 RU
• 320-459 (antibody, human IgG1, name in Kabat numbering, V domains shown, human IgG1, lambda) VH: QVQLVQSGAEVKKPGASVKVSCKASGYTFTSYDKNWVRQAPGQGLEWMGWLNPNSGNTGYAQKFQGRVTMTADRSTSTAYMELSSLRSEDTAVYYCAREVPETAAFEYWGQGTLVTVSS VL: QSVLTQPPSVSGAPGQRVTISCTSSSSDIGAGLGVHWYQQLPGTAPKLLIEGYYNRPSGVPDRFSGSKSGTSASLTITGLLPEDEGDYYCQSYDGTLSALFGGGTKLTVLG = 17 RU
• 320-441 (antibody, human IgG1, name in Kabat numbering, V domains shown, human IgG1, lambda) VH: QVQLVQSGAEVKKPGASVKVSCKASGYTFTSDDINWVRQAPGQGLEWMGWLNPNSGNTGYAQKFQGRVTMTADRSTSTAYMELSSLRSEDTAVYYCAREVPETAAFEYWGQGTLVTVSS VL: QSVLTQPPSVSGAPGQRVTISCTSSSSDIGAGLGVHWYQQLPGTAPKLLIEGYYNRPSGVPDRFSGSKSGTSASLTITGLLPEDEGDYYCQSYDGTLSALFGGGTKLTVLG = 67 RU
• 320-438 (antibody, human IgG1, name in Kabat numbering, V domains shown, human IgG1, lambda) VH: QVQLVQSGAEVKKPGASVKVSCKASGYTFTSADINWVRQAPGQGLEWMGWLNPNSGNTGYAQKFQGRVTMTADRSTSTAYMELSSLRSEDTAVYYCAREVPETAAFEYWGQGTLVTVSS VL: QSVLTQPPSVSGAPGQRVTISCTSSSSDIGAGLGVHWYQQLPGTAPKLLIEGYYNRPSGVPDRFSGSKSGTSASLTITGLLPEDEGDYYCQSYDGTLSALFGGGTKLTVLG = 116 RU
• 320-455 (antibody, human IgG1, name in Kabat numbering, V domains shown, human IgG1, lambda) VH: QVQLVQSGAEVKKPGASVKVSCKASGYTFTSYDSNWVRQAPGQGLEWMGWLNPNSGNTGYAQKFQGRVTMTADRSTSTAYMELSSLRSEDTAVYYCAREVPETAAFEYWGQGTLVTVSS VL: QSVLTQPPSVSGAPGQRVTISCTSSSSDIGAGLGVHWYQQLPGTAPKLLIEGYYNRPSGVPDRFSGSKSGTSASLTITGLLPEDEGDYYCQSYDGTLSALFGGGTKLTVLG = 23 RU
• 320-472 (antibody, human IgG1, name in Kabat numbering, V domains shown, human IgG1, lambda) VH: QVQLVQSGAEVKKPGASVKVSCKASGYTFTSYDINWVRQAPGQGLEWMGWLNPNSGNTGYAQKFQGRVTMTADRSTSTAYMELSSLRSEDTAVYYCAREVPETAAFEYWGQGTLVTVSS VL: QSVLTQPPSVSGAPGQRVTISCTSSSSDIGAGLGVHWYQQLPGTAPKLLIEGYYNRPSGVPDRFSGSKSGTSASLTITGLLPEDEGDYYCQLYDGTLSALFGGGTKLTVLG = 10 RU
• 320-491 (antibody, human IgG1, name in Kabat numbering, V domains shown, human IgG1, lambda) VH: QVQLVQSGAEVKKPGASVKVSCKASGYTFTSYDINWVRQAPGQGLEWMGWSNPNSGNTGYAQKFQGRVTMTADRSTSTAYMELSSLRSEDTAVYYCAREVPETAAFEYWGQGTLVTVSS VL: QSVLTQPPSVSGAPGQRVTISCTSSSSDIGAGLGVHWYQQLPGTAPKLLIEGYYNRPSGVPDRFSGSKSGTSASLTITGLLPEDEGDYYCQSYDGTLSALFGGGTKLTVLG = 76 RU
• 320-469 (antibody, human IgG1, name in Kabat numbering, V domains shown, human IgG1, lambda) VH: QVQLVQSGAEVKKPGASVKVSCKASGYTFTSYDILWVRQAPGQGLEWMGWLNPNSGNTGYAQKFQGRVTMTADRSTSTAYMELSSLRSEDTAVYYCAREVPETAAFEYWGQGTLVTVSS VL: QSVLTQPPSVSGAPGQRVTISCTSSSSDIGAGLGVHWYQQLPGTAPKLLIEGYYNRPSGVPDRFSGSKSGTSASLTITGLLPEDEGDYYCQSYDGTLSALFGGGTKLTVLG = 61 RU

### Prompt Provide measured TL1A Binding Level (Late) value, entry: 320-445 (antibody, human IgG1, name in Kabat numbering, V domains shown, human IgG1, lambda) VH: QVQLVQSGAEVKKPGASVKVSCKASGYTFTSWDINWVRQAPGQGLEWMGWLNPNSGNTGYAQKFQGRVTMTADRSTSTAYMELSSLRSEDTAVYYCAREVPETAAFEYWGQGTLVTVSS VL: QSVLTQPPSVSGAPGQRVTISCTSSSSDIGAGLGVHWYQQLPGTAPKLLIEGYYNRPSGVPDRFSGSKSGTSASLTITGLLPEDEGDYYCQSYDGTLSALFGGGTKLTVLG
### Response 106 RU

### Prompt Given 320-440 (antibody, human IgG1, name in Kabat numbering, V domains shown, human IgG1, lambda) VH: QVQLVQSGAEVKKPGASVKVSCKASGYTFTSQDINWVRQAPGQGLEWMGWLNPNSGNTGYAQKFQGRVTMTADRSTSTAYMELSSLRSEDTAVYYCAREVPETAAFEYWGQGTLVTVSS VL: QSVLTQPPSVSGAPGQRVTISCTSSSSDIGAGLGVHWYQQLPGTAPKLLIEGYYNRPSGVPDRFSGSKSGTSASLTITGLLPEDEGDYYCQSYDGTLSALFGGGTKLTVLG , respond with its TL1A Binding Level (Late).
### Response 97 RU
